# PROTOCOL SUMMARY: Pharmacokinetics in dogs
# Assay type: in vivo
# CONDITION PARAMETERS: beagle, plasma; dog, fed, single PO dose 2 or 3 mg/kg
OBSERVATION TYPE: half-life (h)

• OC[C@H]1CCN1c1nc(-c2cnn(C3CCNCC3)c2)cc(C(F)(F)F)n1 [Example 2] = 9.79
• C[C@H]1CCN1c1nc(-c2cnn(CC(=O)N3CCNCC3)c2)cc(C(F)(F)F)n1 [Example 1] = 36.6

====

# IC50 annotations
# SYSTEM TESTED: human KHK-A (Homo sapiens (Human))
# Sequence (P50053 other isoform, or with tags, fused parts or gaps): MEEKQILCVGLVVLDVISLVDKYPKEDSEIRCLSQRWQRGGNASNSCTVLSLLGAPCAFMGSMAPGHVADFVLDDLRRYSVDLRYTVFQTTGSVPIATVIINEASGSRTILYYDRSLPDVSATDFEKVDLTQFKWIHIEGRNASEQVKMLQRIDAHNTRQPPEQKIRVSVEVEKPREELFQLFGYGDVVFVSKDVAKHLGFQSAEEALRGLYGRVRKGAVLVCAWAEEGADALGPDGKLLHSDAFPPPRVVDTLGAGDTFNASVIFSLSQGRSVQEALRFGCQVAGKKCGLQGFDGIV
# PROTOCOL SUMMARY: KHK enzyme activity assay, human KHK-A (F1P production, RapidFire MS)
# CONDITION PARAMETERS: fructose 1.25 mM, ATP 150 μM; average ± SEM; read-out: hKHK-A IC50
OBSERVATION TYPE: IC50

* C[C@H]1CCN1c1nc(-c2cnn(CC(=O)N3C[C@H](O)[C@@H](O)C3)c2)cc(C(F)(F)F)c1C#N | 0.0249 µM
* CC(=O)N1CCC(n2cc(-c3cc(C(F)(F)F)c(C#N)c(N4CC[C@@H]4C)n3)cn2)CC1 | 0.0292 µM
* OC[C@H]1CCN1c1nc(-c2cnn(C3CNC3)c2)cc(C(F)(F)F)n1 | 0.0454 µM
* OC[C@H]1CCN1c1nc(-c2cnn(C3CCNCC3)c2)cc(C(F)(F)F)n1 | 0.0982 µM
* C[C@H]1CCN1c1nc(-c2cnn(CC(=O)NCCO)c2)cc(C(F)(F)F)c1C#N | 0.0377 µM
* C[C@H]1CCN1c1nc(-c2cnn(C3CCNCC3)c2)cc(C(F)(F)F)c1C#N | 0.00365 µM

Values compiled from patent US11124500B2.
